System: DMS-273 (Small Cell Lung Carcinoma);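 further: after 72 h of two-drug dosing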
Test: Bliss excess, mean over the matrix (fraction); higher = more synergy
Here, each record is paired with measured Bliss excess data.

{"columns": ["Compound", "Bliss excess"],
 "data": [
  ["COc1cccc(OCCCN)c1-c1cc(Nc2cnc(C#N)cn2)n[nH]1 [Prexasertib] + CCc1c2c(nc3ccc(O)cc13)-c1cc3c(c(=O)n1C2)COC(=O)[C@]3(O)CC [SN-38] (first compound max 1 µM, 7x7, partner max 0.3 µM)", 0.0356]
]}

Shifting focus to the compound that follows.
Specify Bliss excess for NC1(C(=O)N[C@@H](CCO)c2ccc(Cl)cc2)CCN(c2ncnc3[nH]ccc23)CC1 [Capivasertib] + Cn1cnc2c(F)c(Nc3ccc(Br)cc3Cl)c(C(=O)NOCCO)cc21 [Selumetinib] (first compound max 10 µM, 7x7, partner max 10 µM) and stop. -0.003
